# subject.of.test: α3β2 nAChR subtype (Rattus norvegicus, UniProt P04757+P12390)
# Construct: expressed in transfected cells
# Sequence (P04757 26-499, one chain of several): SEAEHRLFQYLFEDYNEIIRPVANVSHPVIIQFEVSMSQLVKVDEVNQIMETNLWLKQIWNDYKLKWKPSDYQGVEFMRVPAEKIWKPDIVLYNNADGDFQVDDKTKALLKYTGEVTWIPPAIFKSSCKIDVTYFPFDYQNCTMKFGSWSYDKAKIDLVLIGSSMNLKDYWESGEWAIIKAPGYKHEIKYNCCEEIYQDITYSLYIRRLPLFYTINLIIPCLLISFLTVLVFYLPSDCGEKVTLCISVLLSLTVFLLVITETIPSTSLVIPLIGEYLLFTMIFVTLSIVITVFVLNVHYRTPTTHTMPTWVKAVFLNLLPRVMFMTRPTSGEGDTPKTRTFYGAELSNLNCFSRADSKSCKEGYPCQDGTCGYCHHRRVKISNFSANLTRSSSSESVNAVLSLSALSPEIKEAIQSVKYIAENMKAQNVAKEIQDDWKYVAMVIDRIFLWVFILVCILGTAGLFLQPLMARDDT
# experiment: biochemical
# Type: binding
# study.conditions: Ki α3β2, Table 5; rat nAChR subtypes
// reported Ki for each item listed
Give the value, in units of µM, as a plain number.

{"columns": ["compound", "subject.of.test", "assay.value"],
 "data": [
  ["FCCCCC#Cc1cncc(OC[C@@H]2CCCN2)c1", "α3β2 nAChR subtype (Rattus norvegicus, UniProt P04757+P12390)", 0.00527]
]}

### Prompt Given the compound Clc1cc2c(cn1)C1(CC2)CC2CCC1N2 (centres unmarked) [Ligand 58a] , write its reported Ki.
### Response 16

### Prompt Given the compound O[C@H]1C[C@H]2N[C@@H]1C[C@@H]2c1ccc(Cl)nc1 (relative stereo) , write its reported Ki.
### Response 0.0193

### Prompt Given the compound O=C1CC2NC1CC2c1ccc(Cl)nc1 (centres unmarked) , write its reported Ki.
### Response 1.89

### Prompt Given the compound CCCCCc1cncc(C2CC3CCC2N3)c1 (centres unmarked) , write its reported Ki.
### Response 0.000165

----------
# subject.of.test: α3β2 nAChR subtype (Rattus norvegicus, UniProt P04757+P12390)
# Construct: expressed in transfected cells
# experiment: biochemical
# Type: binding
# study.conditions: Table 3; mean ± SEM of 3 (nicotine, 1: 3 to 6) independent measurements; read-out: Ki α3β2
# Text: In order to assess the steric and hydropathic effects of the C-5 substituents of the pyridine on the binding affinity and subtype-selectivity at neuronal nicotinic acetylcholine receptors. […] The binding affinity ratios for a ligand, calculated from its affinities at an α subunit paired with either the β2 osubunit or the β4 subunit, represents a measure of the selectivity of that ligand with regard to the β subunits.
// reported pKi for each item listed
// pKi: -log10(molar conc.)

Look over these answered cases.
{"columns": ["compound", "pKi"],
 "data": [
  ["Clc1cc2c(cn1)C1(CC2)CC2CCC1N2 (stereo not shown) [Ligand 58a]", 4.71],
  ["Clc1ccc2c(n1)CCC21CC2CCC1N2 (stereo not shown) [Ligand 58b]", 5.39],
  ["Clc1ccc2c(n1)CCC1C3CCC(N3)C21 (stereo not shown) [Ligand 37b]", 6.28]
]}

Could you now look at the following compound, please?
### Prompt Given the compound Clc1cc2c(cn1)C1C3CCC(N3)C1CC2 (stereo not shown) [Ligand 37a] , write its reported pKi.
### Response 6.45

----------
# subject.of.test: α4β2 nAChR subtype (Rattus norvegicus, UniProt P09483+P12390)
# Construct: expressed in transfected cells
# Sequence (P12390 25-500): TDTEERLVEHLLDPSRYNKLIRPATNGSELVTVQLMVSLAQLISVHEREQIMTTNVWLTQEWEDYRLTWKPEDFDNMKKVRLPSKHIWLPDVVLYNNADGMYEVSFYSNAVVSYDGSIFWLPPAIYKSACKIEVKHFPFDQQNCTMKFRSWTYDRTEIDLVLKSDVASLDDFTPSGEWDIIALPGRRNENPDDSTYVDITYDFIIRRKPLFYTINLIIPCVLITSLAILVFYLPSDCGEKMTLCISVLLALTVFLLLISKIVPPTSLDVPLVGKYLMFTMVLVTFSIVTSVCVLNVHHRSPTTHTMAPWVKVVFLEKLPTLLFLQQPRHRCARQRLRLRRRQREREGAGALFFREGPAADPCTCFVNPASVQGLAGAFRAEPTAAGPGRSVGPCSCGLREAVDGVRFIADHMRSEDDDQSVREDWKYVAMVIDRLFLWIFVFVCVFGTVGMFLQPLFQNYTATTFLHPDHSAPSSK
# Sequence (P09483 31-630): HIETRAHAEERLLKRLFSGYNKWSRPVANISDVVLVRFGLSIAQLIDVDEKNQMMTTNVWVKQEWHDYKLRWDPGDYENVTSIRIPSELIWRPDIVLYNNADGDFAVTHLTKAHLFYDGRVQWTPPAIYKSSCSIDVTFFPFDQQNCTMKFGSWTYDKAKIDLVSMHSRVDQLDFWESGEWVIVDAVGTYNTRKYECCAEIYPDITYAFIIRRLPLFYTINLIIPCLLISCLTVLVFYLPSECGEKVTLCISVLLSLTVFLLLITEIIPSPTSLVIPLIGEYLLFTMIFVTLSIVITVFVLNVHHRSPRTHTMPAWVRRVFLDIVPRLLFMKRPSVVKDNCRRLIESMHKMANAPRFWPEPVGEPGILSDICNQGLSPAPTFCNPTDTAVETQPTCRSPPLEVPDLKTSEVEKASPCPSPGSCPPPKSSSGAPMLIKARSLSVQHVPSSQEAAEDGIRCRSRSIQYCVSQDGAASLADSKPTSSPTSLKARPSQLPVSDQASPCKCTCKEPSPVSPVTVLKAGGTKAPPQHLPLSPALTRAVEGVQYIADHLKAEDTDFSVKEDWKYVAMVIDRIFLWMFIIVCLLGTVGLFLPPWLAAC
# experiment: biochemical
# Type: binding
# study.conditions: Table 3; mean of 3 independent measurements; read-out: Ki α4β2
result.type: Ki (nM)
Give the value, in units of nM, as a plain number.

{"columns": ["structure.string", "subject.of.test", "result.type", "assay.value"],
 "data": [
  ["OCCCCC#Cc1cncc(OC[C@@H]2CCCN2)c1", "α4β2 nAChR subtype (Rattus norvegicus, UniProt P09483+P12390)", "Ki", 0.665]
]}

Could you now look at the following compound, please?
### Prompt Give Ki; test system α4β2 nAChR subtype (Rattus norvegicus, UniProt P09483+P12390); compound FCCCCC#Cc1cncc(OC[C@@H]2CCCN2)c1
### Response 0.907
